Where do the numbers come from? From the supplement of paper PMC9233669.

# System: biotinyl-Leu-oxazolone
# ASSAY SUMMARY: self-aminoacylation, catalytic enhancement (BLO) (fold over background); higher = more active; k-Seq, kA / k0A0; sequences stand for … in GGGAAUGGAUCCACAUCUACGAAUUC…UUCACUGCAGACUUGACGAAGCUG
This sample holds only a part of the variants without activity.
MEASURED ATTRIBUTE: self-aminoacylation

INSERT INTO assay_data (sequence_chain, reported_result) VALUES
  ('CCAGACUUCAGGCAAUCGGUC [Fam1B.1 aminoacylation ribozyme variant]', 1.57),
  ('AAGUUUGCAAAUAGUCUCAAG [Fam3.1 aminoacylation ribozyme variant]', 0.747),
  ('AAGUUUGCUAAUAGUCGGUAG [Fam3.1 aminoacylation ribozyme variant]', 1.03),
  ('CCACACUUCAAGCAUUGGGUC [Fam1B.1 aminoacylation ribozyme variant]', 0.83),
  ('AAGUUUUGUAAUAGUCGCAAG [Fam3.1 aminoacylation ribozyme variant]', 1.5),
  ('AAAUUUGCCAAUAGUCGCAAG [Fam3.1 aminoacylation ribozyme variant]', 1.76),
  ('AUUACCCUGGUCAUCGAUAGA [Fam2.1 aminoacylation ribozyme variant]', 0.537),
  ('CAACUUCAAACAAUCGUUCUG [Fam1A.1 aminoacylation ribozyme variant]', 0.728),
  ('AAUACCCUGGUGAUCGAGUGA [Fam2.1 aminoacylation ribozyme variant]', 6.6);
